src = patent US11420944B2

Biological target: CYP3A4 (Homo sapiens)
Construct: purchased Cypex, Ltd; host or cells: E. coli membranes (Bactosomes)
Sequence (P08684 whole entry): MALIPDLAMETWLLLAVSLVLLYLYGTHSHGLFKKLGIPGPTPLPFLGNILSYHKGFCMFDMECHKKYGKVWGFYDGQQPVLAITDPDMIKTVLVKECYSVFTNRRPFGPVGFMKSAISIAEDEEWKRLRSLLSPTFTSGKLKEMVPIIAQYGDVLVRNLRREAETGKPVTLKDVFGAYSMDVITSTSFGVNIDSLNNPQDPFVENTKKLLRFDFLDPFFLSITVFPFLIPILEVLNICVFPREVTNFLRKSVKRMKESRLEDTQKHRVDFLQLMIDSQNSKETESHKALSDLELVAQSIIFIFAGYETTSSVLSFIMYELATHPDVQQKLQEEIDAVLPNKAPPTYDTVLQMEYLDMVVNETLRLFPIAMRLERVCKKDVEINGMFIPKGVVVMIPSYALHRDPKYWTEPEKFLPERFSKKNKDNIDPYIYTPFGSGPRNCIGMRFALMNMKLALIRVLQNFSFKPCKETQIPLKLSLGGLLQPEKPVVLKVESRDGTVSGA
Assay: Evaluation of CYP3A4 activity inhibitory action
Format: in vitro ADME
Conditions: Human CYP3A4BR EasyCYP Bactosomes, 7-Benzyloxy-4-(trifluoromethyl)-coumarin
quantity.kind: CYP3A4 activity inhibition ratio at 10 μM of test compound (%)

In the examples that follow, each entry is paired with its recorded CYP3A4 activity inhibition ratio at 10 μM of test compound.
[
  {
    "compound": "C[C@@H](NC(=O)[C@H]1C[C@@H]1c1nc2ccccc2[nH]1)c1cc2cc(C(F)(F)F)ccc2o1",
    "output.unit": "%",
    "assay.result": 24.1
  },
  {
    "compound": "C[C@@H](NC(=O)C1CC1c1ccc2cnn(C)c2c1)c1ccc(OCC(F)(F)F)s1 (single isomer, unassigned) [Example 22A]",
    "output.unit": "%",
    "assay.result": 12.2
  },
  {
    "compound": "C[C@@H](NC(=O)[C@H]1C[C@@H]1c1nc2ccccc2[nH]1)c1cc2c(F)cc(F)cc2o1",
    "output.unit": "%",
    "assay.result": 23.6
  },
  {
    "compound": "C[C@@H](NC(=O)[C@@H]1CCN(CC(=O)NC(C)(C)C)C1)c1ccc(OCC(F)(F)F)s1.Cl",
    "output.unit": "%",
    "assay.result": 21.9
  },
  {
    "compound": "CC(C)[C@@H](NC(=O)[C@H]1C[C@@H]1c1nc2ccccc2[nH]1)c1cc2ccc(F)cc2o1",
    "output.unit": "%",
    "assay.result": 28.6
  },
  {
    "compound": "C[C@@H](NC(=O)[C@@H]1CCN(CC(=O)C(C)(C)C)C1)c1ccc(OCC(F)(F)F)s1",
    "output.unit": "%",
    "assay.result": 23.6
  }
]

P = C[C@@H](NC(=O)[C@H]1C[C@@H]1c1nc2ccccc2[nH]1)c1cc2ccc(C(F)(F)F)cc2o1
Q = C[C@@H](NC(=O)[C@H]1C[C@@H]1c1nc2ccccc2[nH]1)c1cc2cc(F)ccc2[nH]1
q: Form field 'greater CYP3A4 activity inhibition ratio at 10 μM of test compound' accepts P or Q ; which applies? // caller expects the label of the chosen entry
a: Q

a = CC(C(=O)Nc1ccccc1)N1CC[C@@H](C(=O)N[C@H](C)c2ccc(OCC(F)(F)F)s2)C1 (some centres unmarked)
b = C[C@@H](NC(=O)[C@H]1C[C@@H]1c1nc2ccccc2[nH]1)c1cc2ccc(F)cc2o1
c = C[C@@H](NC(=O)C1CC1c1nc2ccccc2[nH]1)c1ccc(OCC(F)(F)F)s1 (single isomer, unassigned)
d = C[C@@H](NC(=O)[C@H]1C[C@@H]1c1nc2ccccc2[nH]1)c1ccc(C(=O)N2CCC(F)(F)C2)s1
e = C[C@@H](NC(=O)C1CC1c1nc2cc(Cl)ccc2[nH]1)c1cnc(OCC(F)(F)F)s1 (single isomer, unassigned) [Example 64A]
q: Please put the entries in order of rising CYP3A4 activity inhibition ratio at 10 μM of test compound. In your reply, arrange the labels in the requested order.
a: d, e, c, b, a
(d: −1.2%, e: 4.4%, c: 12.7%, b: 27.9%, a: 51.1%)

----------
Molecular target: human Cav3.2 channels (Homo sapiens, UniProt O95180)
Construct: expressed in transfected cells; host or cells: HEK293 cells (ATCC No. CRL-1573), plasmid pcDNA3.1(+)
Sequence (O95180 whole entry): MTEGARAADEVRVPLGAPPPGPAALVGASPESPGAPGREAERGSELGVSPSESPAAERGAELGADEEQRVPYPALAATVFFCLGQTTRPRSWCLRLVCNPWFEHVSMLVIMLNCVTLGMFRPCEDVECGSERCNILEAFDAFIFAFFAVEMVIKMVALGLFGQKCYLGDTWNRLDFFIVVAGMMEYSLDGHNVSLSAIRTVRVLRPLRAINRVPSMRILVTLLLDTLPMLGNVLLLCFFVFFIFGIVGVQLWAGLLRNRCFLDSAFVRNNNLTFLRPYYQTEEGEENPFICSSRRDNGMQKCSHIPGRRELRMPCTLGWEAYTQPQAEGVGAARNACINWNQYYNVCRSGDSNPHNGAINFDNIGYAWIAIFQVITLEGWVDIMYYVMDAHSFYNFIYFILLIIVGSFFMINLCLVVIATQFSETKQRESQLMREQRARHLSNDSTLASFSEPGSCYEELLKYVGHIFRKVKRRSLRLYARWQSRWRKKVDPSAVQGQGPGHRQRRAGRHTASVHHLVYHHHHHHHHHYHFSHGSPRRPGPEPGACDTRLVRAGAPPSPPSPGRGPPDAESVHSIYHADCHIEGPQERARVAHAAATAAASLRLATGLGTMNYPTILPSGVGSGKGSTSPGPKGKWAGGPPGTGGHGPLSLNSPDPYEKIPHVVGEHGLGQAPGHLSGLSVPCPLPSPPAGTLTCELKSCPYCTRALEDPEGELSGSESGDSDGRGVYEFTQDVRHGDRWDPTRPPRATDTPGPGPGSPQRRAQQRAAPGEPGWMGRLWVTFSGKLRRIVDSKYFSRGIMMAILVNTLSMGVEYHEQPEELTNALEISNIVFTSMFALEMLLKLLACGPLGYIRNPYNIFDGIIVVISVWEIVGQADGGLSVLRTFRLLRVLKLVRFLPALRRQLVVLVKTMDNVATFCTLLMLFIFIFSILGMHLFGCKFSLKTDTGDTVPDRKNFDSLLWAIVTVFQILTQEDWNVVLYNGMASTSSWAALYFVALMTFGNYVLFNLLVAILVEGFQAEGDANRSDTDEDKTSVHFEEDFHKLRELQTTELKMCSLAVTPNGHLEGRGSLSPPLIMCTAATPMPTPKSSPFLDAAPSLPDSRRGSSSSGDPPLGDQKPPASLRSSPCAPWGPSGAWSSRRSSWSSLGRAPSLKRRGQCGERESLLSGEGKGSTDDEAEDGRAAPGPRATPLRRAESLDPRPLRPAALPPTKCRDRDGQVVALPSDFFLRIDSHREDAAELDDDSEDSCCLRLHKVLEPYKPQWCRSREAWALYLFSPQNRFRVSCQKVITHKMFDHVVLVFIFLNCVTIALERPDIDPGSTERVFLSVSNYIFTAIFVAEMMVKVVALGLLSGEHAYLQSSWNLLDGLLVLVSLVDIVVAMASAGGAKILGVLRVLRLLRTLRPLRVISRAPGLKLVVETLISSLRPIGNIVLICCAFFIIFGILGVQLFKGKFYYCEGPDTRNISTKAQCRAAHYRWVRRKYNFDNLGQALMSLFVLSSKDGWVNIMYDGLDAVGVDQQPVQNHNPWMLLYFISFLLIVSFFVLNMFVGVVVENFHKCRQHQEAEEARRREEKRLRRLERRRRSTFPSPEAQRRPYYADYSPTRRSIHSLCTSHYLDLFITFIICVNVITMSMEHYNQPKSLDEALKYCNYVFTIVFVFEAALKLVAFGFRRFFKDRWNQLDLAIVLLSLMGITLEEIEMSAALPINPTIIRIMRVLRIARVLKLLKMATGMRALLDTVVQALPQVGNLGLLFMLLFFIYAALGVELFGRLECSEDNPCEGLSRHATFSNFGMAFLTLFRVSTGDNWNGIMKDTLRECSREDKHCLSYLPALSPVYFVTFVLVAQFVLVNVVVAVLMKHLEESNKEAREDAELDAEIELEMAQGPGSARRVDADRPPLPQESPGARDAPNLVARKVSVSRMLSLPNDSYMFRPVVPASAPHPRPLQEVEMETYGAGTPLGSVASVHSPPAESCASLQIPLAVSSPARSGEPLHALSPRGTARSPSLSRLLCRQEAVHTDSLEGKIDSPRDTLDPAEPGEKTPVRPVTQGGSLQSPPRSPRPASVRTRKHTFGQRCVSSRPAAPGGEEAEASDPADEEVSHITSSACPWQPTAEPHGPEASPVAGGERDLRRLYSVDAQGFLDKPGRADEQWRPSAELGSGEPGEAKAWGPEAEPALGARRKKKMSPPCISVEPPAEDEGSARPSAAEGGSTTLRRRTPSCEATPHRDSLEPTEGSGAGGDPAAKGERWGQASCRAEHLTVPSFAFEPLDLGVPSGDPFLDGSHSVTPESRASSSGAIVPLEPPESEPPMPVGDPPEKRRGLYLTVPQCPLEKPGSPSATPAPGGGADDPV
Experiment: Electrophysiological evaluation, whole-cell patch-clamp with automatic patch-clamp system
Assay type: cell-based
Conditions: 0.3 μM, holding potential −80 mV; read-out: Cav3.2 channel current inhibition ratio at 0.3 μM of test compound (holding potential −80 mV)
quantity.kind: inhibition at 0.3 µM (%)

I = C[C@@H](NC(=O)[C@H]1C[C@@H]1c1nc2ccccc2[nH]1)c1cc2ccc(F)cc2o1
II = Cc1nc(OCC(F)(F)F)sc1[C@@H](C)NC(=O)[C@H]1C[C@@H]1c1nc2ccccc2[nH]1
q: Form field 'greater inhibition at 0.3 µM' accepts I or II ; which applies? // caller expects the label of the chosen entry
a: I

I = C[C@@H](NC(=O)[C@@H]1CCN(CC(=O)Nc2cc(Cl)cc(Cl)c2)C1)c1ccc(OCC(F)(F)F)s1
II = C[C@@H](NC(=O)C1CC1c1nc2ccccc2[nH]1)c1cnc(OCC(F)(F)F)cn1 (some centres unmarked) [RQ-00311651, reference compound]
q: Which has the smaller recorded inhibition at 0.3 µM, I or II ? // caller expects the label of the chosen entry
a: II
(II: 17%, I: 87%)

----------
Molecular target: human Cav3.2 channels (Homo sapiens, UniProt O95180)
Construct: expressed in transfected cells; host or cells: HEK293 cells (ATCC No. CRL-1573), plasmid pcDNA3.1(+)
Assay: Intracellular calcium concentration measurement (Fluo-4 AM) in stable cells expressing human Cav3.2 channels, buffer A / buffer B
Format: cell-based
Details: Tables 2 to 6; buffer A, equilibrium potential of potassium −92 mV; read-out: Inhibitory action of buffer A (inactivated state)
quantity.kind: IC50

[
  {
    "molecule": "COc1ccc2oc([C@@H](C)NC(=O)[C@H]3C[C@@H]3c3nc4ccccc4[nH]3)cc2c1",
    "assayed.target": "human Cav3.2 channels (Homo sapiens, UniProt O95180)",
    "IC50": "100 to 1000 nM"
  },
  {
    "molecule": "C[C@@H](NC(=O)C1CC1c1c[nH]c2ccccc12)c1ccc(OCC(F)(F)F)s1 (single isomer, unassigned) [Example 21B]",
    "assayed.target": "human Cav3.2 channels (Homo sapiens, UniProt O95180)",
    "IC50": "100 to 1000 nM"
  },
  {
    "molecule": "C[C@@H](NC(=O)C1CC1c1ccccn1)c1ccc(OCC(F)(F)F)s1 (single isomer, unassigned) [Example 23B]",
    "assayed.target": "human Cav3.2 channels (Homo sapiens, UniProt O95180)",
    "IC50": "> 10000 nM"
  },
  {
    "molecule": "C[C@@H](NC(=O)[C@H]1C[C@@H]1c1nc2ccccc2[nH]1)c1cc2ccccc2o1",
    "assayed.target": "human Cav3.2 channels (Homo sapiens, UniProt O95180)",
    "IC50": "100 to 1000 nM"
  },
  {
    "molecule": "C[C@@H](NC(=O)[C@H]1C[C@@H]1c1nc2ccccc2[nH]1)c1ccc(C(=O)N(C)C)s1",
    "assayed.target": "human Cav3.2 channels (Homo sapiens, UniProt O95180)",
    "IC50": "1000 to 10000 nM"
  },
  {
    "molecule": "C[C@@H](NC(=O)C1CC1COc1ccc(F)cc1)c1cc2cc(F)ccc2o1 (single isomer, unassigned) [Example 112A]",
    "assayed.target": "human Cav3.2 channels (Homo sapiens, UniProt O95180)",
    "IC50": "1000 to 10000 nM"
  },
  {
    "molecule": "C[C@@H](NC(=O)C1CC1c1c[nH]c2ccccc12)c1cnc(OCC(F)(F)F)s1 (single isomer, unassigned)",
    "assayed.target": "human Cav3.2 channels (Homo sapiens, UniProt O95180)",
    "IC50": "≤ 100 nM"
  },
  {
    "molecule": "C[C@@H](NC(=O)[C@H]1C[C@@H]1c1nc2ccccc2[nH]1)c1ccc2c(c1)OC(F)(F)O2",
    "assayed.target": "human Cav3.2 channels (Homo sapiens, UniProt O95180)",
    "IC50": "100 to 1000 nM"
  },
  {
    "molecule": "C[C@@H](NC(=O)C1CC1COc1ccc(F)cc1)c1cc2cc(F)ccc2o1 (single isomer, unassigned) [Example 112B]",
    "assayed.target": "human Cav3.2 channels (Homo sapiens, UniProt O95180)",
    "IC50": "100 to 1000 nM"
  },
  {
    "molecule": "C[C@@H](NC(=O)C1CC1c1nc2cc(Cl)cnc2[nH]1)c1ccc(OCC(F)(F)F)s1 (single isomer, unassigned) [Example 85A]",
    "assayed.target": "human Cav3.2 channels (Homo sapiens, UniProt O95180)",
    "IC50": "1000 to 10000 nM"
  }
]

According to the records, this molecule CCn1c(C2CC2C(=O)N[C@H](C)c2cnc(OCC(F)(F)F)s2)nc2ccccc21 (single isomer, unassigned) [Example 57A] displays IC50 of 100 to 1000 nM

According to the records, this molecule C[C@@H](NC(=O)C1CC1c1nccn1Cc1ccccc1)c1ccc(OCC(F)(F)F)s1 (single isomer, unassigned) [Example 38A] displays IC50 of > 10000 nM

According to the records, this molecule C[C@@H](NC(=O)[C@H]1C[C@@H]1c1nc2cc(F)ccc2[nH]1)c1cc2cc(F)ccc2o1 displays IC50 of ≤ 100 nM

According to the records, this molecule C[C@@H](NC(=O)[C@H]1C[C@@H]1c1nc2ccccc2[nH]1)c1ccc2cc[nH]c2c1 displays IC50 of 100 to 1000 nM

According to the records, this molecule C[C@@H](NC(=O)C1CC1c1nc2c(Cl)cccc2[nH]1)c1ccc(OCC(F)(F)F)s1 (single isomer, unassigned) [Example 122B] displays IC50 of 100 to 1000 nM

According to the records, this molecule C[C@@H](NC(=O)C1CC1c1nc(-c2ccccn2)c[nH]1)c1ccc(OCC(F)(F)F)s1 (mixture of isomers) displays IC50 of 100 to 1000 nM

According to the records, this molecule C[C@@H](NC(=O)[C@H]1C[C@@H]1c1nc2ccccc2[nH]1)c1cc2cc(C(F)(F)F)ccc2o1 displays IC50 of 100 to 1000 nM

According to the records, this molecule C[C@@H](NC(=O)C1CC1c1ccc2cnn(C)c2c1)c1cc2cc(F)ccc2o1 (single isomer, unassigned) [Example 103A] displays IC50 of 100 to 1000 nM
